# TESTED_ON: CDK7/cyclinH/MAT1 trimeric complex (Homo sapiens)
# Sequence (P50613 whole entry): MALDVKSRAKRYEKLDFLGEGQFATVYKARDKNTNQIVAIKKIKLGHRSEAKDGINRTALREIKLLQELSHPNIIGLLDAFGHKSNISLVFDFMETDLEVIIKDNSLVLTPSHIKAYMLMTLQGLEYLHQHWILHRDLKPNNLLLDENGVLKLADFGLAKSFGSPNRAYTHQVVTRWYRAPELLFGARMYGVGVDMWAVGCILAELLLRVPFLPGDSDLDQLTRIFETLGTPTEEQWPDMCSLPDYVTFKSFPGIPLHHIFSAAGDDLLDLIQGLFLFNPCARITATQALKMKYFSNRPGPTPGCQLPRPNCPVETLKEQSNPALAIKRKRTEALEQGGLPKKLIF
# Sequence (P51946 whole entry partner): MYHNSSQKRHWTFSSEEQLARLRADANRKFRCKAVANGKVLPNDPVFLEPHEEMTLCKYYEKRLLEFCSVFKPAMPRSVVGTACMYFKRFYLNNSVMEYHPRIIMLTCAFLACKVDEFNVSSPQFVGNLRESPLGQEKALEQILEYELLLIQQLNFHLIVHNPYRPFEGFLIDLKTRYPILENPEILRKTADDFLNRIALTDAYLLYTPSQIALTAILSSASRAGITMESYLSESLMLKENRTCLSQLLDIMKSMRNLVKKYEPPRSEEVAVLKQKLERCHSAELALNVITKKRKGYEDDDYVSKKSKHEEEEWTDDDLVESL
# Sequence (P51948 whole entry partner): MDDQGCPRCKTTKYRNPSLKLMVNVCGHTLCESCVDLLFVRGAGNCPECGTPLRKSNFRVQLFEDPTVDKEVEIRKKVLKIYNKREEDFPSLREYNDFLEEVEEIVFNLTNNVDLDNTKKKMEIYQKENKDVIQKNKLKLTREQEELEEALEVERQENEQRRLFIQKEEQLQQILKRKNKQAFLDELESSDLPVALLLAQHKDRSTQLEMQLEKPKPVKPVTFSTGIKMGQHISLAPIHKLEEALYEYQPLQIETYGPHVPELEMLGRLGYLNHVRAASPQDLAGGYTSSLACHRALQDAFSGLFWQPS
# EXPERIMENT: In vitro CDK7 assay, potency of irreversible covalent inhibitors (kinact/KI), coupled PK/LDH ADP readout at 340 nm
# EXPERIMENTAL_CONTEXT: read-out: CDK7 (20 nM enz.) (kinact, s^−1), 20 nM enzyme
MEASURED_ATTRIBUTE: kinact (s⁻¹)

C=CC(=O)Nc1ccc(CNc2ccc3c(c2)Nc2nccc(N4CCOCC4)c2CO3)cn1	3.3e-05

(1) CC#CC(=O)N1CCN(C2CCN(c3cc4c(c(C)n3)OCc3c(N5CCOCC5)ccnc3N4)CC2)CC1
(2) C=CC(=O)N1CCC(C2CN(c3cc4c(c(C)n3)OCc3c(N5CCOCC5)ccnc3N4)C2)CC1
(3) CC#CC(=O)N1CCC(N2CC(c3cc4c(c(C5CC5)n3)O[C@@H](C)c3c(N5CCOCC5)ccnc3N4)C2)CC1 (single isomer, unassigned)
(4) CC#CC(=O)N1CC(N2CC[C@@H](c3cc4c(c(C)n3)O[C@H](C)c3c(N5CCOCC5)ccnc3N4)C2)C1 (single isomer, unassigned)
Ordering criterion: kinact; begin with the maximum. Form field (ranking): labels in requested order.
1, 3, 4, 2
(1: 5.18e-05 s⁻¹, 3: 3.18e-05 s⁻¹, 4: 1.51e-05 s⁻¹, 2: 1.01e-05 s⁻¹)

(A) C=CC(=O)N1CCC(N2CC(c3cc(F)c4c(c3)Nc3nccc(C5CCOCC5)c3[C@H](C)O4)C2)CC1 (single isomer, unassigned)
(B) Cc1nc(C2CCN(C3CN(C(=O)/C=C/CN(C)C)C3)CC2)cc2c1OCc1c(-c3cnn(C)c3)ccnc1N2
I'm curious whether A or B has the smaller kinact number. Which is it? Return value: the label identifying the chosen record.
A

(1) C=CC(=O)N1CC(N2CCC(c3ccc4c(c3)Nc3nccc(N5CCOCC5)c3C(C)O4)CC2)C1 (stereo not shown)
(2) C=CC(=O)N1CCC(N2CC(c3ccc4c(c3)Nc3nccc(C5CCOCC5)c3CO4)C2)CC1
Lab notebook, comparison: 1 versus 2 , higher kinact goes to which? Select an item and report its label.
1
(1: 7.22e-05 s⁻¹, 2: 4.92e-05 s⁻¹)
